Hey, just so you know, these numbers are from PubChem BioAssay (NCI).

# key: entry, value: TGI
- System: HT29 colon
- test_protocol: NCI tumour cell line growth inhibition, 48 h

Study these solved cases before continuing.
> print(dat)
                                   compound  recorded.endpoint  experimental.result
1  CC(=O)OC1C[C@@H](C)C2(C[C@H](O)c3ccoc3)C(=O)OC[C@]13C2CCC(O)C31CO1 (stereo not given in full)                TGI             > 100 µM
2  O=c1nc(Oc2c(F)c(F)c(F)c(F)c2F)ccn1C1OC(CO)C(O)C1O (stereo not given)                TGI             > 100 µM
3  CCN1CCN(c2cc(C)nc(N(CCCNc3ccnc4cc(Cl)ccc34)Cc3cccs3)n2)CC1                TGI              4.33 µM

Inquiry: What measured TGI goes with O=C(CC(=O)Nc1ccccc1Cl)NNC(c1cc(N=Nc2ccc(Br)cc2)ccc1O)P(O)O (stereo not given) ?
Reply text: > 10 µM

Inquiry: What measured TGI goes with COc1ccc(/C=C/C(=O)C(C)C)cc1 ?
Reply text: 79.6 µM

Inquiry: What measured TGI goes with CCN1C/C(=C\c2cc(OC)c(OC)c(OC)c2)C2=NN(c3ccccc3)C(c3cc(OC)c(OC)c(OC)c3)C2C1 (stereo not given) ?
Reply text: 6.8 µM

Inquiry: What measured TGI goes with COc1c(CC(=O)c2ccccc2)c2ccccc2n1C(C)=O ?
Reply text: > 100 µM

Inquiry: What measured TGI goes with N#CCCC1(CCC#N)CCc2ccccc2C1=O ?
Reply text: > 100 µM

Inquiry: What measured TGI goes with NC(=O)NN=C1C[C@H]2CCCC[C@H]2C1 ?
Reply text: > 100 µM

Inquiry: What measured TGI goes with CCc1cccc(C(C)C)c1NC(=O)C(=O)C1C(=O)NC(=O)NC1=O ?
Reply text: > 100 µM
